// data source = patent US12404279B2

Observed IC50 for UniProtKB Q93009, reported per entry below.
Structures can show the parent of a compound that is named as a salt.

Observe how each entry below is paired with its result.
* Cc1cc(C(F)(F)F)nc(-c2ccnc3cc(CN4C(=O)C5C(C4=O)C5(C)C)sc23)c1C(=O)N[C@H]1CCNC1 (stereo partly drawn) [Example 75, dihydrochloride] | 1000 to 10000 nM
* Cc1cc(C(F)(F)F)nc(-c2ccnc3cc(CN4C(=O)C5C(C4=O)C5(C)C)sc23)c1C(=O)N1CCC(CNC(C)C)C1 (racemic) [Example 140, trihydrochloride] | < 500 nM
* Cc1cc(C(F)(F)F)nc(-c2ccnc3cc(CN4C(=O)C5C(C4=O)C5(C)C)sc23)c1CN1CC[C@@H]2CNC[C@@H]21 (stereo partly drawn) [Example 153, trihydrochloride] | < 500 nM
* Cc1nc(C(F)(F)F)cc(-c2ccnc3cc(CN4C(=O)C5C(C4=O)C5(C)C)sc23)c1CN1CC(F)(F)C1 (stereo not drawn) [Example 103, 2,2,2-trifluoroacetate] | 1000 to 10000 nM
* Cc1cc(Cl)nc(-c2ccnc3cc(CN4C(=O)C5C(C4=O)C5(C)C)sc23)c1N1CCCNC1=O (stereo not drawn) [Example 121, 2,2,2-trifluoroacetate] | 500 to 1000 nM

# input for lookup
Could you share what IC50 was measured for Cc1cc(Cl)nc(-c2ccnc3cc(CN4C(=O)C5C(C4=O)C5(C)C)sc23)c1OC1CCNC1 (racemic) [Example 2, hydrochloride] , tested on UniProtKB Q93009? < 500 nM

----------
- System: full-length USP7 (Homo sapiens (Human))
- Sequence (Q93009 whole entry): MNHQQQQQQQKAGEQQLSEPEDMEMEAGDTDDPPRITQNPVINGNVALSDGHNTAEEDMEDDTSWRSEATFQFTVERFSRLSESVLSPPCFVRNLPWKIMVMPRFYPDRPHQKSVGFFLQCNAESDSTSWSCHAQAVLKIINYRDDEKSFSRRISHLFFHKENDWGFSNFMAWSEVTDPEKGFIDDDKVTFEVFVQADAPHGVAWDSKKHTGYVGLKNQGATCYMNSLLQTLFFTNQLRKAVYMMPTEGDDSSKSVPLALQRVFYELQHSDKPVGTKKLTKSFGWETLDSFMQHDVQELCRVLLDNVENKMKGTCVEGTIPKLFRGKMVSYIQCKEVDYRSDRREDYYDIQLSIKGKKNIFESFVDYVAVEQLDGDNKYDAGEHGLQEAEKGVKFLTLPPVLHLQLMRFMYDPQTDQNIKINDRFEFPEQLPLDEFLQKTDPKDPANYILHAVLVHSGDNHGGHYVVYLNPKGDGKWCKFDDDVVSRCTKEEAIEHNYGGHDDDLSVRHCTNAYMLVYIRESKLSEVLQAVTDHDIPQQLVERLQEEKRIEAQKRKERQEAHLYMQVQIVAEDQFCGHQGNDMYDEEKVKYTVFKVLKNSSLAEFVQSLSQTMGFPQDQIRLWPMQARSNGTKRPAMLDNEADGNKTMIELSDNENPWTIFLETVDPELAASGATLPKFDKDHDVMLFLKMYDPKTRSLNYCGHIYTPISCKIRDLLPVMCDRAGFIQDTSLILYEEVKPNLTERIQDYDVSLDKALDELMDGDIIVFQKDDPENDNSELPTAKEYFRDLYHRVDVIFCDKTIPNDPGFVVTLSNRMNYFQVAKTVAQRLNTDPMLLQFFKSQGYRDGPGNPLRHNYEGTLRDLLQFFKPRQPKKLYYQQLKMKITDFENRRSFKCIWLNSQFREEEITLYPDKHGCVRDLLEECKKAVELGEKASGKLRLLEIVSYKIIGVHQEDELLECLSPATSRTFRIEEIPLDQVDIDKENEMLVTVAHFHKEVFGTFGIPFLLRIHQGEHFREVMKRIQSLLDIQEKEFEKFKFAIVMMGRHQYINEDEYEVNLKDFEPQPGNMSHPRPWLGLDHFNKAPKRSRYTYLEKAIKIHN
- Test summary: Enzymatic assay to determine IC50 of USP7 inhibitors (Ubiquitin-Rhodamine 110 cleavage)
- Format: biochemical
- Condition parameters: read-out: percent value of inhibition of USP7 activity
inhibition at 1 µM overview

Observe how each entry below is paired with its result.
- CC1(C)C2C(=O)N(Cc3cc4nccc(-c5ncc[nH]5)c4s3)C(=O)C21 (stereo not drawn) [Example 146, 2,2,2-trifluoroacetate]: < 20%
- Cc1nc(C(F)(F)F)cc(-c2ccnc3cc(CN4C(=O)C5C(C4=O)C5(C)C)sc23)c1NC(=O)CN1CC(F)(F)C1 (stereo not drawn) [Example 32, 2,2,2-trifluoroacetate]: < 20%

Dear colleague, I am looking for the recorded inhibition at 1 µM of the following compound: Cc1nc(C#N)cc(-c2ccnc3cc(CN4C(=O)C5C(C4=O)C5(C)C)sc23)c1NC(=O)C1CCN1 (stereo not drawn) [Example 27, 2,2,2-trifluoroacetate] < 20%

----------
pIC50: −log10 of the molar value. Where a name gives a salt, the structure may show the parent alone.
Observed pIC50 for UniProt:Q93009, reported per entry below.

Observe how each entry below is paired with its result.
* Cc1cc(C(F)(F)F)nc(-c2ccnc3cc(CN4C(=O)C5C(C4=O)C5(C)C)sc23)c1C(=O)N1[C@H](C)CNC[C@H]1C (stereo partly drawn) [Example 142, 2,2,2-trifluoroacetate] | 5.00 to 6.00
* Cc1nc(Cl)cc(-c2ccnc3cc(CN4C(=O)C5C(C4=O)C5(C)C)sc23)c1NC(=O)C1CNC1 (stereo not drawn) [Example 29, 2,2,2-trifluoroacetate] | > 6.30

Could you share what pIC50 was measured for Cc1cc(Cl)cc(-c2ccnc3ccoc23)c1O[C@H]1CCCNC1 [Example 150, 2,2,2-trifluoroacetate] , tested on UniProt:Q93009? 5.00 to 6.00

Could you share what pIC50 was measured for Cc1cc(C(F)(F)F)nc(-c2ccnc3cc(CN4C(=O)C5C(C4=O)C5(C)C)sc23)c1C(=O)N1CC[C@H](NC(=O)[C@@H](N)C(C)C)C1 (stereo partly drawn) [Example 109, dihydrochloride] , tested on UniProt:Q93009? > 6.30

Could you share what pIC50 was measured for CCN1CCN(C(=O)c2c(C)cc(C(F)(F)F)nc2-c2ccnc3cc(CN4C(=O)C5C(C4=O)C5(C)C)sc23)CC1 (stereo not drawn) [Example 143, trihydrochloride] , tested on UniProt:Q93009? > 6.30

Could you share what pIC50 was measured for Cc1nc(C(F)(F)F)cc(-c2ccnc3cc(CN4C(=O)C5C(C4=O)C5(C)C)sc23)c1CC1CCNC1 (stereo not drawn) [Example 89, hydrochloride] , tested on UniProt:Q93009? > 6.30

Could you share what pIC50 was measured for Cc1cc(Cl)cc(-c2ccnc3cc(CN4C(=O)C5C(C4=O)C5(C)C)sc23)c1NC(=O)C1CCNCC1 (stereo not drawn) [Example 118, 2,2,2-trifluoroacetate] , tested on UniProt:Q93009? > 6.30
